So I've got a bunch of compounds here, and I need their log10(IC90) values.
System: Acinetobacter baumannii ATCC17961
Test: Antimicrobial susceptibility testing: 90% growth inhibitory concentration (IC90) determination, Iso-Sensitest broth
Assay type: cell-based
Experimental conditions: Acinetobacter baumannii, ATCC17961, 16 h, 90% growth inhibitory concentration, Acinetobacter baumannii ATCC17961, Iso-Sensitest broth, OD 600 nm over 16 h; read-out: ATCC17961 IC90
Where a name gives a salt, the structure may show the parent alone.
Heads up, the numbers here are log10 of IC90 in nM units.

Recorded results for 3 compounds are shown here.
Compound | Readout kind | Measured number
Cc1cc(Nc2nccn3c(-c4ccc(OCC#N)c(Cl)c4F)cnc23)ccc1C(=O)N1CCN(C(=O)[C@@H]2C[C@@H](O)CN2)CC1 [Example 283] | log10(IC90) | 1.71
Cc1cc(Nc2nccn3c(-c4ccc(OCC#N)c(F)c4Cl)cnc23)ccc1C(=O)N1CCN(C(=O)[C@@H]2CCNC[C@@H]2O)CC1 (relative stereo) [Example 223, formate] | log10(IC90) | 1.67
CC[C@]1(O)CN[C@H](C(=O)N2CCN(C(=O)c3ccc(Nc4nccn5c(-c6ccc(OC)c(F)c6)cnc45)cc3C)CC2)C1 [Example 464] | log10(IC90) | 2.14

Report log10(IC90) for every entry below.
1. COc1ccc(-c2cnc3c(Nc4ccc(C(=O)N5CCN(C(=O)[C@@H]6C[C@@H](O)CN6)CC5)c(C)c4F)nccn23)c(F)c1F [Example 576, dihydrochloride]
2. Cc1cc(Nc2nccn3c(-c4ccc(OCC#N)c(F)c4Cl)cnc23)ccc1C(=O)N1CCN(C(=O)[C@@H]2C[C@@H](O)CN2)CC1 [Example 211, formate]
3. Cc1cc(Nc2nccn3c(-c4ccc(OCC#N)c(F)c4F)cnc23)ccc1C(=O)N1CCN(C(=O)[C@@H]2CCNC2)CC1 [Example 198, formate]
4. COc1ccc(-c2cnc3c(Nc4ccc(C(=O)N5CCN(C(=O)[C@@H]6C[C@@H](C#N)CN6)CC5)c(C)c4)nccn23)c(F)c1F [Example 574, hydrochloride]
5. COc1ccc(-c2cnc3c(Nc4ccc(C(=O)N5CCN(C(=O)[C@@H]6C[C@@H](O)CN6)CC5)c(C)c4)nccn23)c(F)c1Cl [Example 93, hydrochloride]
6. COc1ccc(-c2cnc3c(Nc4ccc(C(=O)N5CCN(C(=O)[C@@H]6NC[C@@H](O)[C@H]6O)CC5)c(C)c4)nccn23)c(F)c1F [Example 235]
7. COc1ccc(-c2cnc3c(Nc4ccc(C(=O)N5CCN(C(=O)C6(O)CCNCC6)CC5)c(C)c4)nccn23)c(F)c1F [Example 204, hydrochloride]

Out:
1: 2.37; 2: 1.62; 3: 1.59; 4: 2.42; 5: 1.92; 6: 2.07; 7: 1.66

Report log10(IC90) for every entry below.
1. COc1ccc(-c2cnc3c(Nc4ccc(C(=O)N5CCN(C(=O)[C@@H]6NCC[C@@H]6O)CC5)c(C)c4)nccn23)c(F)c1F [Example 79, hydrochloride]
2. COc1ccc(-c2cnc3c(Nc4cc(C)c(C(=O)N5CCN(C(=O)[C@@H]6C[C@@H](O)CN6)CC5)c(F)c4)nccn23)c(F)c1F [Example 243, dihydrochloride]
3. Cc1cc(Nc2nccn3c(-c4ccc(OC(F)F)cc4)cnc23)ccc1C(=O)N1CCN(C(=O)C2CCNCC2)CC1 [Example 173, hydrochloride]
4. Cc1cc(Nc2nccn3c(-c4ccc(OCC#N)c(F)c4Cl)cnc23)ccc1C(=O)N1CCN(C(=O)N2CCO[C@@H](CN)C2)CC1 [Example 158, formate]

Out:
1: 2.22; 2: 2.05; 3: 1.54; 4: 1.87

Report log10(IC90) for every entry below.
1. COc1ccc(-c2cnc3c(Nc4ccc(C(=O)N5CCC(C(=O)NCC(O)Cn6cccn6)CC5)c(C)c4)nccn23)c(F)c1F (stereo not drawn) [Example 570]
2. COc1ccc(-c2cnc3c(Nc4ccc(C(=O)N5CCN(C(=O)[C@@]67CNCC[C@@H]6OC(C)(C)O7)CC5)c(C)c4)nccn23)c(F)c1F (stereo in doubt) [Example 578]
3. Cc1cc(Nc2nccn3c(-c4ccc(OCC#N)c(F)c4F)cnc23)ccc1C(=O)N1CCN(C(=O)[C@@H]2C[C@@](C)(O)CN2)CC1 [Example 231, formate]
4. Cc1cc(Nc2nccn3c(-c4ccc(OCC#N)c(F)c4Cl)cnc23)ccc1C(=O)N1CCN(C(=O)[C@H]2CCNC2)CC1 [Example 213, formate]

Out:
2.39
2.81
1.72
1.52
